We begin with a simple list: items and their reported inhibition.
experimentalTarget: L-lactate dehydrogenase (Plasmodium falciparum (isolate CDC / Honduras)) (UniProt Q27743)
Sequence (Q27743 whole entry, looked up): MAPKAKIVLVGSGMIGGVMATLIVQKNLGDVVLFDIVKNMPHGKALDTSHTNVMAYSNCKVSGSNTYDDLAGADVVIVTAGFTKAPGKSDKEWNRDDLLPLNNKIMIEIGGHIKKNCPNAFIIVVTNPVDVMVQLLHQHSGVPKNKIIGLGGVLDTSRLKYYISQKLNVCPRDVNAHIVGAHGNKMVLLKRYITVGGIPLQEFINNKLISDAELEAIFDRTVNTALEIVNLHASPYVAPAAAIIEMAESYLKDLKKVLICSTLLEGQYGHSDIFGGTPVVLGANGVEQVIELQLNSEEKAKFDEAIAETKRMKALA
assay: PfLDH activity inhibition – cell lysate, 3D7 strain, counter-screen for P. falciparum growth inhibition project (AID 2304);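 further: 0% = vehicle and 100% = reference inhibitor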
experimentalContext: P. falciparum 3D7 crude extract, LDH APAD/NBT absorbance; at 2 µM; stronger effect = higher value
Activity calls are given as the source filed them. How the calls were made is not given here.

Consider the reported inhibition for these compounds:
compound	result
COc1ccc(-c2cc3nc4c(c(NCCCn5ccnc5)n3n2)CCCC4)cc1	-2% (inactive)
CCCCNS(=O)(=O)c1ccc(NC(=O)c2cc([N+](=O)[O-])ccc2Cl)cc1	-3% (inactive)
CCCCCC(C)N=C(Nc1ccc([N+](=O)[O-])cc1O)Nc1ccccc1Br (configuration not stated)	5% (inactive)

Report inhibition for O=C(Nc1ccc(C(F)(F)F)cc1)c1ccc(S(=O)(=O)NC2CCN(CC3CCCCC3)CC2)cc1 please.
1% (inactive)

Cc1cc(N[C@@H](Cc2ccccc2)C(=O)NCCc2ccccc2)nc(NCCOc2ccccc2)n1 ?
-3% (inactive)

Record: COc1ccc2c(=O)c3ccc(OC)cc3[nH]c2c1
1% (inactive)

Try this compound next: CCOC(=O)c1[nH]c2ccc(F)cc2c1NC(=O)CN1CCN(c2cccc(C(F)(F)F)c2)CC1
-2% (inactive)

###

The molecules listed here are annotated with their growth inhibition.
assay: antimalarial activity against Dd2 strain (AID 2302);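 further: 0% = DMSO untreated growth and 100% = chloroquine plus artemisinin killed control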
experimentalContext: P. falciparum Dd2 in RBCs, LDH growth readout, 72 h; at 2 µM; stronger effect = higher value
State just the number; it will be interpreted in %.

Item under review: Cc1cc(Cl)ccc1OC(C)C(=O)N1CCc2ccccc21 (stereo unspecified) . Reported growth inhibition?
78

Also O=C(c1ccc2ccccc2n1)N1CCCc2cc(Br)ccc21 ?
74

Thanks! And COc1cc2c(cc1N1C[C@@H](C)N[C@@H](C)C1)N(C(=O)c1ccc(-c3ccc(-c4ncc[nH]4)cc3C)cc1)CC2 ?
58

Same lookup for CCN(CC)CCOc1ccc(C(O)(C#CC(O)(c2ccc(OCCN(CC)CC)cc2)c2ccc([N+](=O)[O-])cc2)c2ccc([N+](=O)[O-])cc2)cc1 (stereo unspecified) , please.
97

Would you kindly repeat that for C[C@@H]1CN(c2ncc(-c3ccc(CNC4Cc5ccccc5C4)cc3)cn2)C[C@H](C)N1 ?
78

How about CN1CCN(c2ccc(Nc3nc(N)c4ccn(C5CCC5)c4n3)cc2)CC1 ?
47

###

assay: human hepatoma cell viability loss – ATP luminescence, cytotoxicity control for P. falciparum antimalarial project, primary screen (AID 2303);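 further: 0% = DMSO wells and 100% = digitonin-killed cells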
experimentalContext: HepG2 viability, 24-48 h, at 10 µM
Activity calls are given as the source filed them.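 The calls were made as follows: active = inhibition above 50%; inactive = the rest.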
Form entry, call: pick from 1 for active, -1 for inactive

Use these answered entries as a reference point.
molecule	class
CCNc1cc(C(=O)N[C@@H](Cc2ccccc2)[C@H](O)CNC(C)(C)CC(C)(C)C)c(F)c(N2CCCCS2(=O)=O)c1	-1
CCNc1cc(C(=O)N[C@@H](Cc2cccc(F)c2)[C@H](O)CNC(C)CCCC(C)C)cc(N2CCCCS2(=O)=O)c1 (some centres undefined)	-1
CC1(C)N=C(N)N=C(N)N1OCCCCCOc1ccccc1	1

Record request — test call for O=C(O)C[C@H](NC(=O)CCCNC(=O)c1cccc(-c2ccc(Cl)c(Cl)c2)c1)C(=O)O
-1

Now consider Cc1c(-c2cccc(NC(=O)C(C)(C)Oc3ccc(Cl)cc3)c2)nc2ncccn12 .
-1

Quick one: CC1(C)N=C(N)N=C(N)N1OCCSCc1cc(Cl)sc1Cl
1

Continue with O=C(NC1CCCCCC1)[C@@H]1CCCN1C(=O)c1ccc(O)c(-c2ccc(Cl)c(Cl)c2)c1
-1

Next molecule: O=C(NCC1CCC(C(=O)NCCc2ccc(Cl)c(Cl)c2)CC1)c1ccc(O)c(-c2ccc(Cl)c(Cl)c2)c1 (centres undefined)
-1

Can you handle O=C(Cc1cnc[nH]1)Nc1cccc(-c2cccc(-c3nc4ccccc4[nH]3)c2)c1 next?
-1

What do you have for C=CCc1cc(Cc2cnc(N)nc2N)c2ccc(C)nc2c1OC ?
-1

And CN(C)c1ccc(C=Cc2nc(=O)c3ccccc3o2)cc1 ?
-1

Same lookup for COc1cc(C(=O)NC2CCc3ccccc32)cc(Cl)c1OC (centres undefined) , please.
-1

Next entry: CC(=O)N(Cc1nc(-c2cc(Cl)c(Cl)s2)cs1)c1c(C)cccc1C
-1

Moving on to O=C(/C=C/c1ccc(Cl)c(Cl)c1)NCCCCCN1CCCC(C(=O)Nc2ccc(F)c(Cl)c2)C1 (centres undefined)
-1

Then what about the molecule CN(C)Cc1cccc(-c2cnc(N)c(-c3nc4ccc(S(C)(=O)=O)cc4[nH]3)c2)c1 ?
-1

Same thing, different molecule: COc1ccc(Nc2nc(NCc3ccco3)c3ccccc3n2)cc1
-1

Repeat for the following molecule: Cc1c(CNCCCNc2nc3cscc3[nH]2)sc(C(F)F)c1Br
-1

What about this molecule? O=C(Nc1cccc(F)c1)N(Cc1ccc(-c2cccc(CN3CCNCC3)c2)cc1)C1CCN(Cc2ccccc2)CC1
-1

Try NC(N)=NN=CC(=O)Nc1ccc(Br)cc1 next.
-1

Then this molecule: COc1cc(C(=O)Nc2ccc(-c3nc4ccccc4[nH]3)cc2)cc(OC)c1OC
-1

Request: CC(C)(C)[C@@H](Nc1ccc(C#N)c2ccccc12)C(=O)NC1(Cc2ccc(O)c(Br)c2)CCCC1
-1

Can you handle COc1ccccc1N=C1SC(=Cc2cn(CC(=O)N3CCCc4ccccc43)c3ccccc23)C(=O)N1C1CCCCC1 next?
-1

Also O=S1(=O)NC2(CCN(CCc3ccc(Cl)cc3)CC2)Nc2cc(F)cc(F)c21 , if possible.
-1
